test system: Gli-luciferase activity; assay: Reporter gene assay (RGA) in TMHh12 cells, antagonism of Gli-luciferase activity in the presence of a Smo agonist; format: cell-based; details: 25 nM small molecule Smo agonist, read-out: RGA (25 nM Smo agonist) IC50
measurement.label: IC50

Task item: // map CP(C)(=O)c1ccc(N2CCN(c3nnc(Cc4ccccc4)c4ccccc34)CC2)nc1 [Example 107] to recorded IC50 (system: Gli-luciferase activity)
Reply: 0.1 to 1 µM

Task item: // map CN(C)C(=O)c1ccc(N2CCN(c3nnc(Cc4ccccc4)c4ccccc34)CC2)nc1 [Example 54s] to recorded IC50 (system: Gli-luciferase activity)
Reply: 0.1 to 1 µM

Task item: // map CC(=O)NC(C)(C)c1ccc(N2CCN(c3nnc(Cc4ccccc4)c4ccccc34)CC2)nc1 [Example 162] to recorded IC50 (system: Gli-luciferase activity)
Reply: < 0.1 µM

Task item: // map CC(C)(O)c1ccc(N2CCN(c3nnc(Cc4ccc(F)cc4F)c4ccccc34)CC2)nc1 [Example 193] to recorded IC50 (system: Gli-luciferase activity)
Reply: < 0.1 µM

Task item: // map N#Cc1ccc(N2CCN(c3nnc(Cc4ccc(C(=O)O)cc4)c4ccccc34)CC2)nc1 [Example 180] to recorded IC50 (system: Gli-luciferase activity)
Reply: 10 to 40 µM

Task item: // map FC(F)(F)c1ccc(N2CCCN(c3nnc(Cc4ccccc4)c4ccccc34)CC2)nc1 [Example 3] to recorded IC50 (system: Gli-luciferase activity)
Reply: 0.1 to 1 µM

Task item: // map CC(C)(O)c1ccc(N2CCN(c3nnc(Cc4ccccc4)c4ccccc34)CC2)nc1 [Example 54a] to recorded IC50 (system: Gli-luciferase activity)
Reply: < 0.1 µM

Task item: // map O=C(O)c1ccc(N2CCN(c3nnc(Cc4ccccc4)c4ccccc34)CC2)cc1 [Example 16] to recorded IC50 (system: Gli-luciferase activity)
Reply: 1 to 10 µM

* * *

Overview of recorded IC50 for various compounds
test system: Gli-luciferase activity; test: Reporter gene assay (RGA) in TMHh12 cells, antagonism of Gli-luciferase activity in the presence of a Smo agonist; format: cell-based; details: 25 nM small molecule Smo agonist, read-out: RGA (25 nM Smo agonist) IC50

- compound: "Cc1ccc(N2CCN(c3nnc(Cc4ccccc4)c4ccccc34)CC2C)cc1 (centres unmarked)"
  target.entity: "Gli-luciferase activity"
  IC50: "1 to 10 µM"

Task item: // query IC50 value for entry `CCc1cnc(N2CCCN(c3nnc(Cc4ccccc4)c4ccccc34)CC2)nc1`
Reply: 0.1 to 1 µM

Task item: // query IC50 value for entry `N#Cc1cccc(C(=O)N2CCC(c3cn(Cc4ccc(F)cc4)c4ccccc34)CC2)c1`
Reply: 1 to 10 µM

Task item: // query IC50 value for entry `CC(C)(O)c1cnc(N2CCN(c3nnc(Cc4ccccc4)c4ccccc34)CC2)cc1C(F)(F)F`
Reply: < 0.1 µM

Task item: // query IC50 value for entry `c1ccc(Cc2nnc(N3CCN(c4ccc(CNC5CCOCC5)cn4)CC3)c3ccccc23)cc1`
Reply: 0.1 to 1 µM

Task item: // query IC50 value for entry `N#Cc1ccc(N2CCN(c3nnc(Cc4ccc(Cl)c(Cl)c4)c4ccccc34)CC2)nc1`
Reply: 1 to 10 µM

Task item: // query IC50 value for entry `CCOC(=O)c1ccc(N2CCN(c3nnc(Cc4ccc(F)cc4)c4ccccc34)CC2)nc1`
Reply: 1 to 10 µM

Task item: // query IC50 value for entry `COC(=O)c1ccc(Cc2nnc(N3CCN(c4ccc(C#N)cn4)CC3)c3ccccc23)cc1`
Reply: 10 to 40 µM

* * *

test system: Gli-luciferase activity; assay: Reporter gene assay (RGA) in TMHh12 cells, antagonism of Gli-luciferase activity in the presence of a Smo agonist; type: cell-based; conditions: 25 nM small molecule Smo agonist, read-out: RGA (25 nM Smo agonist) IC50
pIC50: −log10 of the molar value.
Overview of recorded pIC50 for various compounds

- compound: "OC1(c2ccc(N3CCN(c4nnc(Cc5ccccc5)c5ccccc45)CC3)nc2)CC1 [Example 135]"
  target.entity: "Gli-luciferase activity"
  observed: "6.00 to 7.00"
- compound: "O=C(c1ccc(C(F)(F)F)cc1)N1CCC(c2cn(Cc3ccccc3)c3ccccc23)CC1 [Example 105]"
  target.entity: "Gli-luciferase activity"
  observed: "4.40 to 5.00"
- compound: "CC(C)(O)c1cnc(N2CCN(c3nnc(Cc4ccccc4)c4ccccc34)CC2)cn1 [Example 150]"
  target.entity: "Gli-luciferase activity"
  observed: "> 7.00"

Task item: // query pIC50 value for entry CC(C)OC(=O)NCc1ccc(N2CCN(c3nnc(Cc4ccccc4)c4ccccc34)CC2)nc1 [Example 211]
Reply: 6.00 to 7.00

Task item: // query pIC50 value for entry CCN1CCOc2cc3c(cc21)Oc1cc2c(cc1=N3)OCC[N+]=2CCCCCC(=O)NCc1ccc(N2CCN(c3nnc(Cc4ccccc4)c4ccccc34)CC2)nc1 [Example 74]
Reply: 6.00 to 7.00

Task item: // query pIC50 value for entry Cc1cccc(Cc2nnc(N3CCN(c4ccc(C#N)cn4)CC3)c3ccccc23)c1 [Example 69]
Reply: 5.00 to 6.00

Task item: // query pIC50 value for entry OC1(c2ccc(N3CCN(c4nnc(Cc5ccccc5)c5ccccc45)CC3)nc2)COC1 [Example 111]
Reply: 6.00 to 7.00

Task item: // query pIC50 value for entry CCOC(=O)c1ccc(N2CCN(c3nnc(Cc4ccc(F)cc4F)c4ccccc34)[C@@H](C)C2)nc1 [Example 187]
Reply: 6.00 to 7.00

Task item: // query pIC50 value for entry N#Cc1ccc(N2CCN(c3nnc(Cc4ccc(Cl)c(C(F)(F)F)c4)c4ccccc34)CC2)nc1 [Example 178]
Reply: 6.00 to 7.00

Task item: // query pIC50 value for entry OC(c1ccc(N2CCN(c3nnc(Cc4ccccc4)c4ccccc34)CC2)nc1)C(F)(F)F (stereo not shown) [Example 109]
Reply: 6.00 to 7.00

Task item: // query pIC50 value for entry O=C(c1ccc(N2CCN(c3nnc(Cc4ccccc4)c4ccccc34)CC2)nc1)N1CC(O)C1 [Example 54z]
Reply: 6.00 to 7.00

Task item: // query pIC50 value for entry N#Cc1ccc(C2CCN(c3nnc(Cc4ccccc4)c4ccccc34)CC2)cc1 [Example 116]
Reply: 5.00 to 6.00

Task item: // query pIC50 value for entry N#Cc1ccc(N2CCN(c3cnc(Cc4cccc(C#N)c4)c4ccccc34)CC2)nc1 [Example 80]
Reply: 4.40 to 5.00

Task item: // query pIC50 value for entry CC(=O)c1ccc(N2CCN(c3nnc(Cc4ccccc4)c4ccccc34)CC2)nc1 [Example 134]
Reply: > 7.00

Task item: // query pIC50 value for entry CC(=O)Nc1cnc(N2CCN(c3nnc(Cc4ccccc4)c4ccccc34)CC2)nc1 [Example 237]
Reply: 6.00 to 7.00

Task item: // query pIC50 value for entry O=C1CCCN1c1ccc(N2CCN(c3nnc(Cc4ccccc4)c4ccccc34)CC2)nc1 [Example 131]
Reply: 6.00 to 7.00

* * *

test system: Gli-luciferase activity; test: Reporter gene assay (RGA) in TMHh12 cells, antagonism of Gli-luciferase activity in the presence of a Smo agonist; format: cell-based; conditions: 25 nM small molecule Smo agonist, read-out: RGA (25 nM Smo agonist) IC50
pIC50: −log10 of the molar value.
measurement.label: pIC50

The cases that follow already have their pIC50 on record.
- smiles.structure: "CC(C)(O)c1cnc(N2CCN(c3nnc(Cc4ccccc4)c4ccccc34)CC2)nc1C(F)(F)F"
  observed: "> 7.00"
- smiles.structure: "FC(F)(F)c1ccc(N2CCN(c3nnc(Cc4ccccc4)c4[nH]cnc34)CC2)nc1"
  observed: "5.00 to 6.00"
- smiles.structure: "CC(C)(O)c1cnc(N2CCN(c3nnc(Cc4ccccc4)c4ccccc34)CC2)nc1"
  observed: "6.00 to 7.00"

Task item: // map `CCOC(=O)c1ccc(N2CCN(c3nnc(Cc4ccccc4F)c4ccccc34)CC2)nc1` to recorded pIC50 (system: Gli-luciferase activity)
Reply: 6.00 to 7.00

Task item: // map `c1ccc(Cc2nnc(N3CCN(c4cnccn4)CC3)c3ccccc23)cc1` to recorded pIC50 (system: Gli-luciferase activity)
Reply: 5.00 to 6.00

* * *

Tested on: Gli-luciferase activity
Experiment: Reporter gene assay (RGA) in TMHh12 cells, antagonism of Gli-luciferase activity in the presence of a Smo agonist
Format: cell-based
Conditions: 25 nM small molecule Smo agonist, read-out: RGA (25 nM Smo agonist) IC50
Experimental: Activity of the compounds was evaluated using a reporter gene assay (RGA) in TMHh12 cells.
pIC50: −log10 of the molar value.
measurement.label: pIC50

- compound: "FC(F)(F)c1ccc(N2CCC(c3cn(Cc4ccccc4)c4ccccc34)CC2)nc1 [Example 97]"
  measurement.label: "pIC50"
  observed: "5.00 to 6.00"
- compound: "CC(C)(O)c1ccc(N2CCN(c3nnc(Cc4ccccc4)c4ccccc34)CC2)nn1 [Example 152]"
  measurement.label: "pIC50"
  observed: "6.00 to 7.00"
- compound: "c1ccc2cc(N3CCN(c4nnc(Cc5ccncc5)c5ccccc45)CC3)ccc2c1 [Example 32]"
  measurement.label: "pIC50"
  observed: "5.00 to 6.00"
- compound: "Cc1c(Cc2ccc(F)cc2)nnc(N2CCN(c3ccc(C#N)cn3)CC2)c1C [Example 93a]"
  measurement.label: "pIC50"
  observed: "6.00 to 7.00"
- compound: "COCC(=O)NC(C)(C)c1ccc(N2CCN(c3nnc(Cc4ccccc4)c4ccccc34)CC2)nc1 [Example 121]"
  measurement.label: "pIC50"
  observed: "> 7.00"
- compound: "Cc1cc(Cc2ccccc2)nnc1N1CCN(c2ccc(C#N)cn2)CC1 [Example 86]"
  measurement.label: "pIC50"
  observed: "5.00 to 6.00"

Task item: // query pIC50 value for entry COc1ccc(Cc2nnc(N3CCN(c4ccc(C#N)cn4)CC3)c3ccccc23)cc1 [Example 64]
Reply: 5.00 to 6.00

Task item: // query pIC50 value for entry Fc1ccc(Cn2cc(C3CCN(c4ccc(C(F)(F)F)cn4)CC3)c3ccccc32)cc1 [Example 95]
Reply: 5.00 to 6.00
